- Species on record: Rattus norvegicus
- Procedure Details: Maximum velocity was determined for rat liver DT diaphorase substrate activity
- Assay type: functional
Recorded measurements of Vmax, one per entry

Compound: CCCC(=O)OC1CCn2c1nc1c2C(=O)C(C)=C(NC(C)=O)C1=O (racemic)
Vmax (nM/s): 42.3
--
Compound: COCC(=O)O[C@@H]1CCn2c1nc1c2C(=O)C(C)=C(NC(C)=O)C1=O
Vmax (nM/s): 16.7
--
Compound: CC(=O)NC1=C(C)C(=O)c2c(nc3n2CCC3OC(=O)c2ccccc2)C1=O (racemic)
Vmax (nM/s): 27.9
--
Compound: CC(=O)O[C@H]1CCn2c1nc1c2C(=O)C(C)=C(N2CC2)C1=O (stereo in doubt; (+))
Vmax (nM/s): 83.4
--
Compound: CCCCC1=C(NC(C)=O)C(=O)c2nc3n(c2C1=O)CCC3OC(C)=O (centres undefined)
Vmax (nM/s): 15.4
--
Compound: CC(=O)NC1=C(C)C(=O)c2c(nc3n2CCC3OC(C)=O)C1=O (racemic)
Vmax (nM/s): 38.6
--
Compound: CCCCC1=C(N2CC2)C(=O)c2nc3n(c2C1=O)CCC3OC(C)=O (racemic)
Vmax (nM/s): 8.5
--
Compound: CC(=O)O[C@H]1CCn2c1nc1c2C(=O)C(C)=C(N2CC2)C1=O (stereo in doubt; (-))
Vmax (nM/s): 62.6
--
Compound: CC(=O)NC1=C(C)C(=O)c2c(nc3n2CC[C@H]3OC(C)=O)C1=O
Vmax (nM/s): 14.6
